test: Phase 1a pharmacokinetics in healthy volunteers, single IV administration; format: in vivo, human; conditions: human, plasma, intravenous, 0.05 mg/kg, in 220 ml 5% dextrose, 60-min infusion; read-out: CL (converted)
outcome-measure: clearance (mL/min)
Provide only the numeric value, understood in mL/min.

[in] Quickly give me recorded clearance for CC1(C)C(=CC=C2CCCC(C=CC3=[N+](CCCCS(=O)(=O)[O-])c4ccc(S(=O)(=O)O)cc4C3(C)C)=C2Oc2ccc(CC(NC(=O)c3ccc(NCc4cnc5nc(N)[nH]c(=O)c5n4)cc3)C(=O)O)cc2)N(CCCCS(=O)(=O)O)c2ccc(S(=O)(=O)O)cc21 (stereo not shown)
[out] 245

====

test: Single IV dose toxicokinetics in rats; format: in vivo; conditions: rat, in vivo; male rats, 3.1 mg/kg single IV, Study Day 0
outcome-measure: AUC(0-t) (ng·h/mL)
Provide only the numeric value, understood in ng·h/mL.

[in] Quickly give me recorded AUC(0-t) for CC1(C)C(=CC=C2CCCC(C=CC3=[N+](CCCCS(=O)(=O)[O-])c4ccc(S(=O)(=O)O)cc4C3(C)C)=C2Oc2ccc(CC(NC(=O)c3ccc(NCc4cnc5nc(N)[nH]c(=O)c5n4)cc3)C(=O)O)cc2)N(CCCCS(=O)(=O)O)c2ccc(S(=O)(=O)O)cc21 (stereo not shown) [pafolacianine]
[out] 570

====

assay: Repeat once-weekly IV dose toxicokinetics in dogs; format: in vivo; conditions: male, dog, in vivo, iv, 9.3 mg/kg, dogs M, 9.3 mg/kg once-weekly IV, Day 0; read-out: T1/2 (converted)
outcome-measure: half-life (min)
Provide only the numeric value, understood in min.

[in] Quickly give me recorded half-life for CC1(C)C(=CC=C2CCCC(C=CC3=[N+](CCCCS(=O)(=O)[O-])c4ccc(S(=O)(=O)O)cc4C3(C)C)=C2Oc2ccc(CC(NC(=O)c3ccc(NCc4cnc5nc(N)[nH]c(=O)c5n4)cc3)C(=O)O)cc2)N(CCCCS(=O)(=O)O)c2ccc(S(=O)(=O)O)cc21 (stereo not shown)
[out] 984

====

test: Phase 1a pharmacokinetics in healthy volunteers, single IV administration; assay type: in vivo, human; conditions: human, plasma, intravenous, 0.2 mg/kg, with pre-treatment of antihistamine (clemastine); read-out: AUC0-inf
outcome-measure: AUC(0-inf)
Reply with the number and its unit after it.

[in] Quickly give me recorded AUC(0-inf) for CC1(C)C(=CC=C2CCCC(C=CC3=[N+](CCCCS(=O)(=O)[O-])c4ccc(S(=O)(=O)O)cc4C3(C)C)=C2Oc2ccc(CC(NC(=O)c3ccc(NCc4cnc5nc(N)[nH]c(=O)c5n4)cc3)C(=O)O)cc2)N(CCCCS(=O)(=O)O)c2ccc(S(=O)(=O)O)cc21 (stereo not shown) [pafolacianine]
[out] 1430 ng·h/mL

====

test: Phase 1a pharmacokinetics in healthy volunteers, single IV administration; assay type: in vivo, human; conditions: human, plasma, intravenous, 0.025 mg/kg, in 220 ml 5% dextrose, 60-min infusion; read-out: T1/2 (converted)
outcome-measure: half-life (min)
Provide only the numeric value, understood in min.

[in] Quickly give me recorded half-life for CC1(C)C(=CC=C2CCCC(C=CC3=[N+](CCCCS(=O)(=O)[O-])c4ccc(S(=O)(=O)O)cc4C3(C)C)=C2Oc2ccc(CC(NC(=O)c3ccc(NCc4cnc5nc(N)[nH]c(=O)c5n4)cc3)C(=O)O)cc2)N(CCCCS(=O)(=O)O)c2ccc(S(=O)(=O)O)cc21 (stereo not shown)
[out] 26.3

====

test: Repeat once-weekly IV dose toxicokinetics in rats; type: in vivo; conditions: male, rat, in vivo, iv, 46.3 mg/kg, rats M, 46.3 mg/kg once-weekly IV, Day 0; read-out: Vss
outcome-measure: Vd
Reply with the number and its unit after it.

[in] Quickly give me recorded Vd for CC1(C)C(=CC=C2CCCC(C=CC3=[N+](CCCCS(=O)(=O)[O-])c4ccc(S(=O)(=O)O)cc4C3(C)C)=C2Oc2ccc(CC(NC(=O)c3ccc(NCc4cnc5nc(N)[nH]c(=O)c5n4)cc3)C(=O)O)cc2)N(CCCCS(=O)(=O)O)c2ccc(S(=O)(=O)O)cc21 (stereo not shown)
[out] 1.41 L/kg

====

assay: Repeat once-weekly IV dose toxicokinetics in rats; type: in vivo; details: male, rat, in vivo, iv, 46.3 mg/kg, rats M, 46.3 mg/kg once-weekly IV, Day 0
outcome-measure: C0
Reply with the number and its unit after it.

[in] Quickly give me recorded C0 for CC1(C)C(=CC=C2CCCC(C=CC3=[N+](CCCCS(=O)(=O)[O-])c4ccc(S(=O)(=O)O)cc4C3(C)C)=C2Oc2ccc(CC(NC(=O)c3ccc(NCc4cnc5nc(N)[nH]c(=O)c5n4)cc3)C(=O)O)cc2)N(CCCCS(=O)(=O)O)c2ccc(S(=O)(=O)O)cc21 (stereo not shown)
[out] 263 µg/mL

====

assay: Phase 1a pharmacokinetics in healthy volunteers, single IV administration; format: in vivo, human; details: human, plasma, intravenous, 0.2 mg/kg, with pre-treatment of antihistamine (clemastine); read-out: Cmax
outcome-measure: Cmax (ng/mL)
Provide only the numeric value, understood in ng/mL.

[in] Quickly give me recorded Cmax for CC1(C)C(=CC=C2CCCC(C=CC3=[N+](CCCCS(=O)(=O)[O-])c4ccc(S(=O)(=O)O)cc4C3(C)C)=C2Oc2ccc(CC(NC(=O)c3ccc(NCc4cnc5nc(N)[nH]c(=O)c5n4)cc3)C(=O)O)cc2)N(CCCCS(=O)(=O)O)c2ccc(S(=O)(=O)O)cc21 (stereo not shown)
[out] 765

====

test: Repeat once-weekly IV dose toxicokinetics in rats; type: in vivo; details: male, rat, in vivo, iv, 3.1 mg/kg, rats M, 3.1 mg/kg once-weekly IV, Day 13
outcome-measure: clearance (mL/min/kg)
Provide only the numeric value, understood in mL/min/kg.

[in] Quickly give me recorded clearance for CC1(C)C(=CC=C2CCCC(C=CC3=[N+](CCCCS(=O)(=O)[O-])c4ccc(S(=O)(=O)O)cc4C3(C)C)=C2Oc2ccc(CC(NC(=O)c3ccc(NCc4cnc5nc(N)[nH]c(=O)c5n4)cc3)C(=O)O)cc2)N(CCCCS(=O)(=O)O)c2ccc(S(=O)(=O)O)cc21 (stereo not shown) [pafolacianine]
[out] 2.47

====

experiment: Repeat once-weekly IV dose toxicokinetics in dogs; assay type: in vivo; details: male, dog, in vivo, iv, 13.9 mg/kg, dogs M, 13.9 mg/kg once-weekly IV, Day 13
outcome-measure: C0 (µg/mL)
Provide only the numeric value, understood in µg/mL.

[in] Quickly give me recorded C0 for CC1(C)C(=CC=C2CCCC(C=CC3=[N+](CCCCS(=O)(=O)[O-])c4ccc(S(=O)(=O)O)cc4C3(C)C)=C2Oc2ccc(CC(NC(=O)c3ccc(NCc4cnc5nc(N)[nH]c(=O)c5n4)cc3)C(=O)O)cc2)N(CCCCS(=O)(=O)O)c2ccc(S(=O)(=O)O)cc21 (stereo not shown) [pafolacianine]
[out] 108

====

experiment: Repeat once-weekly IV dose toxicokinetics in rats; assay type: in vivo; conditions: male, rat, in vivo, iv, 3.1 mg/kg, rats M, 3.1 mg/kg once-weekly IV, Day 0
outcome-measure: C0 (ng/mL)
Provide only the numeric value, understood in ng/mL.

[in] Quickly give me recorded C0 for CC1(C)C(=CC=C2CCCC(C=CC3=[N+](CCCCS(=O)(=O)[O-])c4ccc(S(=O)(=O)O)cc4C3(C)C)=C2Oc2ccc(CC(NC(=O)c3ccc(NCc4cnc5nc(N)[nH]c(=O)c5n4)cc3)C(=O)O)cc2)N(CCCCS(=O)(=O)O)c2ccc(S(=O)(=O)O)cc21 (stereo not shown)
[out] 27700

====

assay: Phase 1a pharmacokinetics in healthy volunteers, single IV administration; assay type: in vivo, human; conditions: human, plasma, intravenous, 0.2 mg/kg, in 220 ml 5% dextrose, 60-min infusion; read-out: CL (converted)
outcome-measure: clearance (mL/min)
Provide only the numeric value, understood in mL/min.

[in] Quickly give me recorded clearance for CC1(C)C(=CC=C2CCCC(C=CC3=[N+](CCCCS(=O)(=O)[O-])c4ccc(S(=O)(=O)O)cc4C3(C)C)=C2Oc2ccc(CC(NC(=O)c3ccc(NCc4cnc5nc(N)[nH]c(=O)c5n4)cc3)C(=O)O)cc2)N(CCCCS(=O)(=O)O)c2ccc(S(=O)(=O)O)cc21 (stereo not shown)
[out] 167

====

experiment: Repeat once-weekly IV dose toxicokinetics in rats; assay type: in vivo; details: male, rat, in vivo, iv, 46.3 mg/kg, rats M, 46.3 mg/kg once-weekly IV, Day 0
outcome-measure: clearance (mL/min/kg)
Provide only the numeric value, understood in mL/min/kg.

[in] Quickly give me recorded clearance for CC1(C)C(=CC=C2CCCC(C=CC3=[N+](CCCCS(=O)(=O)[O-])c4ccc(S(=O)(=O)O)cc4C3(C)C)=C2Oc2ccc(CC(NC(=O)c3ccc(NCc4cnc5nc(N)[nH]c(=O)c5n4)cc3)C(=O)O)cc2)N(CCCCS(=O)(=O)O)c2ccc(S(=O)(=O)O)cc21 (stereo not shown)
[out] 2.27
